The reader will find reported IC50 values listed item by item below.
- subject-of-test: human TLR9 (Homo sapiens, UniProt Q9NR96)
- Sequence (Q9NR96 26-1032): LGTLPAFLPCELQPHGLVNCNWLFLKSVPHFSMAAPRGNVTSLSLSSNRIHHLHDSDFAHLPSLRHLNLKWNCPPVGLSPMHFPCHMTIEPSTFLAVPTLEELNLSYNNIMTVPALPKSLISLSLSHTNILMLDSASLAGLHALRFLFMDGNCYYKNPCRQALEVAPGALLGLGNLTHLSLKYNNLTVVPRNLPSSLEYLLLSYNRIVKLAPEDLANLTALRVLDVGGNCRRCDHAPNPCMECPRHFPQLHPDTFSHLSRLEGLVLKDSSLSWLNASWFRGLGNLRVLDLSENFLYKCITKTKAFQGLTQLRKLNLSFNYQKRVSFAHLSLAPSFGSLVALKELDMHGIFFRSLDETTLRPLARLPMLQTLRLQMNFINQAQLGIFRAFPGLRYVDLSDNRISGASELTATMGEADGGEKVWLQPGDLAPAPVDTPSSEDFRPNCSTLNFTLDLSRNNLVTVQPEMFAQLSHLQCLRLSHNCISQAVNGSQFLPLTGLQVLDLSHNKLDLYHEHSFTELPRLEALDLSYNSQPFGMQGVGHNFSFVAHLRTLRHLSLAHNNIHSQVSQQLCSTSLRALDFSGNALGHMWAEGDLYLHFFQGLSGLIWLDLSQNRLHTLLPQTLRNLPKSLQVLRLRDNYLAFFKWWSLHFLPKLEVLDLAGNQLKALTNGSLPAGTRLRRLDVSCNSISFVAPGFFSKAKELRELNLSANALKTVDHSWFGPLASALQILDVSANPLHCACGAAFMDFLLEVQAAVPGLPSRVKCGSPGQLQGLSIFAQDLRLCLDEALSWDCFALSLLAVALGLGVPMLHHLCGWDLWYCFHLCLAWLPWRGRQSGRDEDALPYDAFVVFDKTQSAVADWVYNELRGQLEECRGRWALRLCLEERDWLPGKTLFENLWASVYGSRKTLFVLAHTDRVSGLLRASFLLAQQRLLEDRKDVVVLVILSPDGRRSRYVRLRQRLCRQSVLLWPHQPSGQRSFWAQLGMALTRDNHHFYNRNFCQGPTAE
- assay-notes: TLR9 inhibition reporter assay (HEK-Blue cells, SEAP reporter, ODN2006 stimulation)
- test-settings: HEK-Blue cells overexpressing human TLR9, SEAP reporter, ODN2006 5 nM
- Excerpt: TLR7/8/9 Inhibition Reporter Assays HEK-Blue™-cells (Invivogen) overexpressing human TLR7, TLR8 or TLR9 receptors were used for screening inhibitors of these receptors using an inducible SEAP (secreted embryonic alkaline phosphatase) reporter gene under the control of the IFN-β minimal promoter fused to five NF-κB and AP-1-binding sites. […]

- compound: "Cc1cc(-c2[nH]c3ccc(C4CN5CCC4CC5)cc3c2C(C)C)cc(C)n1 (single isomer, unassigned) [Example 363]"
  rel: "="
  IC50, nM: 438
- compound: "Cc1c(-c2[nH]c3ccc(C4CCC(N5CC(CO)(CO)C5)CC4)cc3c2C(C)C)cn2ncnc2c1C (single isomer, unassigned) [Example 27]"
  rel: "="
  IC50, nM: 1760
- compound: "Cc1c(-c2[nH]c3ccc(C4CCC(NC5COC5)CC4)cc3c2C(C)C)cn(C)c(=O)c1C (stereo not shown) [Example 477]"
  rel: "="
  IC50, nM: 8210
- compound: "COc1cc(-c2[nH]c3ccc(C4CCC(NCC(N)=O)CC4)cc3c2C(C)C)cn2ncnc12 (stereo not shown) [Example 109]"
  rel: "="
  IC50, nM: 1600
- compound: "CCc1c(-c2ccc(OC)c(OC)c2)[nH]c2ccc(CN3CC4CN(C(C)C)CC4C3)cc12 (stereo not shown)"
  rel: "="
  IC50, nM: 1180
- compound: "Cc1cc(-c2[nH]c3ccc(CCN4CC[C@H](F)C4)cc3c2C(C)C)cn(C)c1=O"
  rel: "="
  IC50, nM: 13000
- compound: "CNC(=O)CN1CCOC(c2ccc3[nH]c(-c4cc(C)c5ncnn5c4)c(C(C)C)c3c2)C1 (stereo not shown) [Example 307]"
  rel: ">"
  IC50, nM: 50000

* * *

The reader will find reported log10 of IC50 values listed item by item below.
- subject-of-test: UniProtKB Q9NYK1
- Sequence (Q9NYK1 27-1049): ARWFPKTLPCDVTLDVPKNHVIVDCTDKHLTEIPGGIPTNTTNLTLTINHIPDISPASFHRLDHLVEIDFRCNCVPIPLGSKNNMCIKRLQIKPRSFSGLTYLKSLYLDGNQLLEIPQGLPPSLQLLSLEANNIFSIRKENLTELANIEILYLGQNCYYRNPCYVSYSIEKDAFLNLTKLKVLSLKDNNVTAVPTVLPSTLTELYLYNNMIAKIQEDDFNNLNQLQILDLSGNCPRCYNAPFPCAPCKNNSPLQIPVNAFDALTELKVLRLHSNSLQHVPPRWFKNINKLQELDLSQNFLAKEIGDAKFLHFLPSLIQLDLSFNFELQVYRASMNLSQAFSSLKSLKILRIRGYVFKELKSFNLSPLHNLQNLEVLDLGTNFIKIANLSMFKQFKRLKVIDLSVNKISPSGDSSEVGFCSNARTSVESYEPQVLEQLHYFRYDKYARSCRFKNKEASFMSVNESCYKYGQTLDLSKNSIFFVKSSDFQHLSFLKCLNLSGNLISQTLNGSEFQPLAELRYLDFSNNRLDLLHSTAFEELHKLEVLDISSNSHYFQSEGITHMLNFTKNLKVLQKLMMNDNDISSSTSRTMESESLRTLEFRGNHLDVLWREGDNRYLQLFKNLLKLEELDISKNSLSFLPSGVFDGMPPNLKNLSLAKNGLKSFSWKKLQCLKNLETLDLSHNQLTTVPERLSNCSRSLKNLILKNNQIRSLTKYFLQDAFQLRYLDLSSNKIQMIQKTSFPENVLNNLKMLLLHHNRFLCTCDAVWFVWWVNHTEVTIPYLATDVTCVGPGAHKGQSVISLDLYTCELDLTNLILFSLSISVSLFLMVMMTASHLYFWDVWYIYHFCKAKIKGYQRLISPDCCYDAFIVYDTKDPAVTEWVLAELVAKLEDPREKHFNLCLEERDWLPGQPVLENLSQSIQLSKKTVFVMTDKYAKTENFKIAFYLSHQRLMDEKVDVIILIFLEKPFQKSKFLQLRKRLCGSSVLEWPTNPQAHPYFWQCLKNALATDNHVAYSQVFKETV
- assay-notes: TLR7 inhibition reporter assay (HEK-Blue cells, SEAP reporter, gardiquimod stimulation)
- test-settings: HEK-Blue cells overexpressing human TLR7, SEAP reporter, gardiquimod 7.5 μM
measured-attribute: log10 of IC50 (log10 of the value in nM)

- compound: "Cc1cc(-c2[nH]c3ccc(C4CN5CCC4CC5)cc3c2C(C)C)cc(C)n1 (single isomer, unassigned) [Example 362]"
  log10 of IC50: 0.78
- compound: "Cc1cc(-c2[nH]c3ccc(C4CCC(OC5CCNCC5)CC4)cc3c2C(C)C)ccn1 (stereo not shown)"
  log10 of IC50: 1.45
- compound: "CCc1c(-c2ccnc(C)c2)[nH]c2ccc(CNC(=O)C3CC4(CCNCC4)C3)cc12"
  log10 of IC50: 3.60
- compound: "Cc1cc(-c2[nH]c3ccc(C4CCCNC4)cc3c2C(C)C)ccn1 (stereo not shown) [Example 185]"
  log10 of IC50: 1.26
- compound: "CNCCN1CCCC(c2ccc3[nH]c(-c4ccnc(C)c4)c(C(C)C)c3c2)C1 (stereo not shown) [Example 255]"
  log10 of IC50: 1.28
- compound: "COCCN1CCN(C2CCC(c3ccc4[nH]c(-c5cc(OC)c6ncnn6c5)c(C(C)C)c4c3)CC2)CC1 (single isomer, unassigned) [Example 39]"
  log10 of IC50: 0.95
- compound: "Cc1cc(-c2[nH]c3ccc([C@@H]4C[C@H]4C(=O)N(C)C4CCNCC4)cc3c2C(C)C)ccn1"
  log10 of IC50: 1.40

* * *

The reader will find reported pIC50 values listed item by item below.
- subject-of-test: human TLR8 (Homo sapiens)
- Sequence (Q9NR97 27-1041): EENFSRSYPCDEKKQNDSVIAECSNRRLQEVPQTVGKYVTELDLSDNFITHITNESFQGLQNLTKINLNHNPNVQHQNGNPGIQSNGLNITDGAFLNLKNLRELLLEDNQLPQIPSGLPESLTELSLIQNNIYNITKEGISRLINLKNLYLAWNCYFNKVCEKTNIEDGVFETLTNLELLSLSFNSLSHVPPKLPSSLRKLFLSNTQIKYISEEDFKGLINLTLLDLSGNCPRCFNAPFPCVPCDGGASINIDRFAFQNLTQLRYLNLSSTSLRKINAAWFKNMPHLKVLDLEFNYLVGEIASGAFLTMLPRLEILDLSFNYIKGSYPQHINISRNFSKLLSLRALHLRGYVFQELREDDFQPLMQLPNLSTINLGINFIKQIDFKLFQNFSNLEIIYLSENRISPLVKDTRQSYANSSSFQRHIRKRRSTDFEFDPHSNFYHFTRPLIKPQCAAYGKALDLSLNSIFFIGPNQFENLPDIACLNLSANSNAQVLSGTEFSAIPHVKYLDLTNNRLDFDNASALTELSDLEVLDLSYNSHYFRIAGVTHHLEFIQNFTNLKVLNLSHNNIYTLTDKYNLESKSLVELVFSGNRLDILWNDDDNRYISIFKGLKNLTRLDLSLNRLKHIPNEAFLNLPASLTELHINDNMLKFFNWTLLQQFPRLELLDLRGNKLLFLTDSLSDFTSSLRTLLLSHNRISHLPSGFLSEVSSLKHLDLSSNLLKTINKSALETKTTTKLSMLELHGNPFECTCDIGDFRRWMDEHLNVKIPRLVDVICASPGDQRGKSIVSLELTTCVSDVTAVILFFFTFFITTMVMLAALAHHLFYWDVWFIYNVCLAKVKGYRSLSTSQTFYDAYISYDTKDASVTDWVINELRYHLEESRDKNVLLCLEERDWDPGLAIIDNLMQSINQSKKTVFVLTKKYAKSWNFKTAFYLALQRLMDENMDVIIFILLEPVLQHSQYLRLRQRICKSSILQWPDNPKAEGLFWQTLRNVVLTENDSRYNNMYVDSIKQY
- assay-notes: TLR8 inhibition reporter assay (HEK-Blue cells, SEAP reporter, R848 stimulation)
- test-settings: HEK-Blue cells overexpressing human TLR8, SEAP reporter, R848 15.9 μM
pIC50: −log10 of the molar value.

- molecule: "CCc1c(-c2ccnc(C)c2)[nH]c2ccc(CNC(=O)C3CCNC3)cc12 (centres unmarked)"
  pIC50: 5.49
- molecule: "Cc1c(-c2[nH]c3ccc(C4CN(CCS(C)(=O)=O)C4)cc3c2C(C)C)cn(C)c(=O)c1C"
  pIC50: 8.06
- molecule: "COc1cc(-c2[nH]c3ccc(C4CN(C(=O)CN(C)C)C(C)(C)CO4)cc3c2C(C)C)cn2ncnc12 (centres unmarked)"
  pIC50: 6.96
- molecule: "COc1cc(-c2[nH]c3ccc(C4CC(N)C4)cc3c2C(C)C)cn2ncnc12 (centres unmarked)"
  pIC50: 9.12
- molecule: "Cc1cc(-c2[nH]c3ccc(CC4CCCN4CC(=O)N(C)C)cc3c2C(C)C)cn2ncnc12 (centres unmarked)"
  pIC50: 7.89
- molecule: "COc1cc(-c2[nH]c3ccc(C4CCC(N(C)CCC(F)(F)F)CC4)cc3c2C(C)C)cn2ncnc12 (centres unmarked) [Example 82]"
  pIC50: 7.64
- molecule: "Cc1cc(-c2[nH]c3ccc(C4CCC(N)CC4)cc3c2C(C)C)cn2ncnc12 (single isomer, unassigned) [Example 3]"
  pIC50: 9.00
- molecule: "CNC(=O)CN1CCOC(c2ccc3[nH]c(-c4cc(C)c5ncnn5c4)c(C(C)C)c3c2)C1 (centres unmarked) [Example 307]"
  pIC50: 7.33
- molecule: "COc1cc(-c2[nH]c3ccc(C4CN(C(C)C)CCO4)cc3c2C(C)C)cn2ncnc12 (centres unmarked) [Example 300]"
  pIC50: 8.19
- molecule: "COc1cc(-c2[nH]c3ccc(C4CCC(NC5(C)COC5)CC4)cc3c2C(C)C)cn2ncnc12 (single isomer, unassigned) [Example 45]"
  pIC50: 8.42
- molecule: "Cc1c(-c2[nH]c3ccc(CC4CN(C(=O)CN(C)C)C4)cc3c2C(C)C)cn(C)c(=O)c1C"
  pIC50: 7.42
- molecule: "Cc1cc(-c2[nH]c3ccc(CCN4CCOCC4)cc3c2C(C)C)cc(C)n1"
  pIC50: 8.03
- molecule: "Cc1cc(-c2[nH]c3ccc([C@@H]4C[C@H]4C(=O)N(C)C4CCNCC4)cc3c2C(C)C)ccn1"
  pIC50: 7.57
- molecule: "Cc1c(-c2[nH]c3ccc(C4CCC(NC(=O)CN(C)C)CC4)cc3c2C(C)C)cn2ncnc2c1C (centres unmarked) [Example 123]"
  pIC50: 9.00
- molecule: "COc1cc(-c2[nH]c3ccc(C4CCC(NC(=O)CN(C)C5CC5)CC4)cc3c2C(C)C)cn2ncnc12 (centres unmarked)"
  pIC50: 8.10
- molecule: "Cc1c(-c2[nH]c3ccc(C4CC(N(C)C(=O)CN(C)C)C4)cc3c2C(C)C)cn2ncnc2c1C (centres unmarked) [Example 584]"
  pIC50: 8.42
- molecule: "Cc1cc(-c2[nH]c3ccc(C4CCC(NC5COC5)CC4)cc3c2C(C)C)cc(C)n1 (centres unmarked) [Example 61]"
  pIC50: 8.41
- molecule: "Cc1c(-c2[nH]c3ccc(C4CCCN(CC(=O)N(C)C)C4)cc3c2C(C)C)cn2ncnc2c1C (centres unmarked) [Example 226]"
  pIC50: 8.13
- molecule: "CN[C@@H](C)C(=O)N1CCCC(c2ccc3[nH]c(-c4cc(C)nc(C)c4)c(C(C)C)c3c2)C1 (some centres unmarked) [Example 219]"
  pIC50: 8.07
- molecule: "COc1cc(-c2[nH]c3ccc(C4CC(NC(=O)CN(C)C)C4)cc3c2C(C)C)cn2ncnc12 (centres unmarked)"
  pIC50: 9.21
- molecule: "COc1cc(-c2[nH]c3ccc(C4CCC(N5CCC[C@H]5C(N)=O)CC4)cc3c2C(C)C)cn2ncnc12 (some centres unmarked) [Example 29]"
  pIC50: 8.72
- molecule: "CNC1CCC(c2ccc3[nH]c(-c4cn5cnnc5c(C)c4C)c(C(C)C)c3c2)CC1 (centres unmarked) [Example 530]"
  pIC50: 7.92
- molecule: "COC1CCC(c2ccc3[nH]c(-c4cc(C)c5ncnn5c4)c(C(C)C)c3c2)CC1 (centres unmarked)"
  pIC50: 6.58
- molecule: "Cc1cc(-c2[nH]c3ccc(C4CCC(N(C)C)CC4)cc3c2C(C)C)cc(C)n1 (single isomer, unassigned) [Example 114]"
  pIC50: 7.70
- molecule: "CCN(C)C1CCC(c2ccc3[nH]c(-c4cn5ncnc5c(C)c4C)c(C(C)C)c3c2)CC1 (centres unmarked) [Example 88]"
  pIC50: 8.33
- molecule: "COCCN1CCN(C2CCC(c3ccc4[nH]c(-c5cc(OC)c6ncnn6c5)c(C(C)C)c4c3)CC2)CC1 (single isomer, unassigned) [Example 38]"
  pIC50: 8.68
- molecule: "Cc1cc(-c2[nH]c3ccc(C4CCC(NCC(C)(C)O)CC4)cc3c2C(C)C)cn2ncnc12 (centres unmarked)"
  pIC50: 8.19
- molecule: "Cc1c(-c2[nH]c3ccc(C4CN(CC5CCOC5)C4)cc3c2C(C)C)cn(C)c(=O)c1Cl (centres unmarked)"
  pIC50: 7.60
- molecule: "Cc1cc(-c2[nH]c3ccc(C4CCC(N(C)CC(=O)N(C)C)CC4)cc3c2C(C)C)cn2ncnc12 (single isomer, unassigned) [Example 177]"
  pIC50: 7.62
